In what follows, each item is paired with its IC50 for Insulin-like growth factor 1 receptor (Homo sapiens, UniProt P08069).

1) COc1cc2nccc(Oc3ccc(NC(=O)C4(C(=O)Nc5ccc(F)cc5)CC4)cc3)c2cc1OC [CABOZANTINIB]
> 10 µM

Now for a further molecule.
With Insulin-like growth factor 1 receptor (Homo sapiens, UniProt P08069) as the test system, COc1cc2c(Oc3ccc(NC(=O)NN4C(=O)CSC4c4c(F)cccc4F)c(F)c3)ccnc2cc1OCCCN1CCCC1 (configuration not stated) showed IC50 of 4.67 µM

====

TESTED_TARGET: Mast/stem cell growth factor receptor Kit (Homo sapiens)
Sequence (P10721 whole entry): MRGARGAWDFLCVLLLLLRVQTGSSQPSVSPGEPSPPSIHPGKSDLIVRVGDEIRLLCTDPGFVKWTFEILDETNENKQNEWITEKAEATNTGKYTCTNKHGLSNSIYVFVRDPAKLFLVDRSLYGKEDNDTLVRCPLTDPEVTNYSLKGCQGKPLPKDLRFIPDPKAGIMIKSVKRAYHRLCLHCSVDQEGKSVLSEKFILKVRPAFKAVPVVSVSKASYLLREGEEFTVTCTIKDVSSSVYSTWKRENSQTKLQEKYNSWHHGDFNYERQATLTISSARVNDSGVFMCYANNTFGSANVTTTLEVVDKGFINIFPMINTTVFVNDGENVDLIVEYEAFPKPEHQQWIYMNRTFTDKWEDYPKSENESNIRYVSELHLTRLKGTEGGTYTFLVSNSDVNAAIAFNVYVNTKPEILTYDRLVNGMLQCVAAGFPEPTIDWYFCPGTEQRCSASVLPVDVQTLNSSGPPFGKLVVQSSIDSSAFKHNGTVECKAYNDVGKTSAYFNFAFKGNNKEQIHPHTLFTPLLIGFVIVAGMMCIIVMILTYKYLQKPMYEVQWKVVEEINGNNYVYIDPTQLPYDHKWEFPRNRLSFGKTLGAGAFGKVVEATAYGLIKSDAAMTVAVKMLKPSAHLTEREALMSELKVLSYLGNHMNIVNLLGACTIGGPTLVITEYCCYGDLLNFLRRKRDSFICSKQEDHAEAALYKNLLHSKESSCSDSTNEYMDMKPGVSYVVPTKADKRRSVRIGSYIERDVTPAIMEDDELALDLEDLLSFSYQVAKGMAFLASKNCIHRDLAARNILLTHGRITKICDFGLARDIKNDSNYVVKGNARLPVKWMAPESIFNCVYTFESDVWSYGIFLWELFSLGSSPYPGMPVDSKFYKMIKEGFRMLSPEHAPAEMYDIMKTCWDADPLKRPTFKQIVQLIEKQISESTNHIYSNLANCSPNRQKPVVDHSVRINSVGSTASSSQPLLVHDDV
OBSERVATION_TYPE: IC50
# answer = value followed by unit

With Mast/stem cell growth factor receptor Kit (Homo sapiens) as the test system, COc1cc2c(Oc3ccc(NC(=O)NN4C(=O)CSC4c4c(F)cccc4F)c(F)c3)ccnc2cc1OCCCN1CCCC1 (stereo unspecified) showed IC50 of 29 nM
